# MEASURED TARGET: Cholinesterase (Homo sapiens)
# Sequence (P06276 whole entry): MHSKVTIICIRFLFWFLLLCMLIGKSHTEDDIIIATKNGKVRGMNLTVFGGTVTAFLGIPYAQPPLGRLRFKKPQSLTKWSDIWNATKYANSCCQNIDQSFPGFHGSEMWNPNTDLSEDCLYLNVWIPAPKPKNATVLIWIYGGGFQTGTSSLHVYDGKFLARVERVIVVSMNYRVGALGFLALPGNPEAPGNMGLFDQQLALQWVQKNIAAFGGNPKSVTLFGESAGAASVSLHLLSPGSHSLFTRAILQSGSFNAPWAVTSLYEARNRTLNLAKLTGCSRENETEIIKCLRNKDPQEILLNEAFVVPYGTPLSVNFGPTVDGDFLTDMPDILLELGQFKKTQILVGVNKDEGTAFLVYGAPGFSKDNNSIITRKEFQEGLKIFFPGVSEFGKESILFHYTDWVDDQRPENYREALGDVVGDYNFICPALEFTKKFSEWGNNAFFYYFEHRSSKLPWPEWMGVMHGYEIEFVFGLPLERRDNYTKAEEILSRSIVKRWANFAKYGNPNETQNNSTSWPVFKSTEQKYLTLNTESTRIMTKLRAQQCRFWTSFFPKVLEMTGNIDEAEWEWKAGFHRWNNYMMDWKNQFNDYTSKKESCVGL
# TEST DETAILS: Inhibition of recombinant human BChE using butyrylthiocholine iodide as substrate preincubated for 300 secs followed by substrate addition measured for 1 min by Ellman's method
Could you please mark Satisfied for values of IC50 below 200 nM and Not satisfied for values at or above it?

Examples with answers:
Please indicate whether the reported IC50 of O=C(NCC1CCCN(C2Cc3ccccc3C2)C1)c1cccc2ccccc12 (racemic) is strictly below 200 nM. Satisfied

Given the entry COCCN(CC1CCCN(Cc2ccccc2)C1)C(=O)c1ccc2ccccc2c1 (racemic) , would its reported IC50 be below 200 nM? Not satisfied

Regarding CNCCN(CC1CCCN(C2Cc3ccccc3C2)C1)C(=O)c1ccc2ccccc2c1.Cl.Cl (racemic) , kindly confirm whether its IC50 is beneath 200 nM. Satisfied

Just wondering, is IC50 of COCCN(CC1CCCN(C2Cc3ccccc3C2)C1)C(=O)c1ccc2cc(Br)ccc2c1 (racemic) below 200 nM? Not satisfied

Others:
Determine whether this compound shows IC50 lower than 200 nM (ties excluded): O=C(NCC1CCCN(Cc2nc3ccccc3s2)C1)c1ccc2ccccc2c1 (racemic) Not satisfied

---

# TEST DETAILS: Efflux ratio of apparent permeability from basolateral to apical side over apical to basolateral side in human Caco2 cells
# Assay type: ADME, cell-based
# PROTOCOL CONDITIONS: Caco-2
RECORDED ENDPOINT: efflux ratio
// return a plain number; no unit text

Complete the entry with efflux ratio for `COC(=O)c1ccccc1-c1c2ccc(=N)cc-2oc2cc(N)ccc12.Cl` 7.3

---

Reported values of Papp A→B at 20 min, 100 µM for individual entries
# TEST DETAILS: Apparent permeability across apical to basolateral side in human Caco2 cells at 100 uM after 20 mins by fluorescein dye based HPLC-UV analysis
# Assay type: ADME, cell-based
# PROTOCOL CONDITIONS: Caco-2

Write down Papp A→B at 20 min, 100 µM measured for item `COC(=O)c1ccccc1-c1c2ccc(=N)cc-2oc2cc(N)ccc12.Cl` 1.1 ×10⁻⁶ cm/s

Turning to the following molecule.
State its Papp A→B at 20 min, 100 µM for this molecule: CN(C)CCN(CC1CCCN(C2Cc3ccccc3C2)C1)C(=O)c1ccc2ccccc2c1.Cl (racemic) 28 ×10⁻⁶ cm/s

---

# MEASURED TARGET: Cholinesterase (Homo sapiens)
# TEST DETAILS: Inhibition of recombinant human BChE using butyrylthiocholine iodide as substrate preincubated for 300 secs followed by substrate addition measured for 1 min by Ellman's method
Below, each entry is listed alongside its reported IC50.
The reply should be a number in µM, with the unit left off.

Give reported IC50 value for O=C(NCC1CCCN(Cc2ccccc2)C1)c1ccc2ccccc2c1 (racemic) 1.44

New cases:
Query IC50 for `COCCN(CC1CCN(Cc2ccccc2)CC1)C(=O)c1ccc2ccccc2c1` 0.702

Entry COCCCN(CC1CCCN(C2Cc3ccccc3C2)C1)C(=O)c1ccc2ccccc2c1 (racemic) needs its IC50 filled in; supply it. 0.0382

---

# TEST DETAILS: Half life in human plasma at 1 uM by HPLC-MS/MS analysis
# Format: ADME, cell-free
RECORDED ENDPOINT: half-life at 1 µM

Give reported half-life at 1 µM value for CN(C)CCN(CC1CCCN(C2Cc3ccccc3C2)C1)C(=O)c1ccc2ccccc2c1.Cl (racemic) > 2 h

---

# TEST DETAILS: in vitro
# PROTOCOL CONDITIONS: human, SH-SY5Y cells
# Description: Cytotoxicity against human SH-SY5Y cells assessed as reduction in cell viability after 48 hrs by MTS assay
RECORDED ENDPOINT: CC50 at 48 h

Quickly give me recorded CC50 at 48 h for CN(C)CCN(CC1CCCN(C2Cc3ccccc3C2)C1)C(=O)c1ccc2ccccc2c1.Cl (racemic) 6.63 µM

---

# MEASURED TARGET: Cholinesterase (Homo sapiens)
# TEST DETAILS: Competitive inhibition of recombinant human BChE using butyrylthiocholine iodide as substrate at pH 8 by stopped flow assay
RECORDED ENDPOINT: pKi
Convention used: pKi is expressed as -log10 of the molar concentration.

Check the records and state pKi for `c1ccc2c(NCCCCCCCNc3c4c(nc5ccccc35)CCCC4)c3c(nc2c1)CCCC3` 9.79
